Origin of measurements: ChEMBL document CHEMBL4622967

target: Histone deacetylase 8 (Homo sapiens, UniProt Q9BY41)
Sequence (Q9BY41 whole entry): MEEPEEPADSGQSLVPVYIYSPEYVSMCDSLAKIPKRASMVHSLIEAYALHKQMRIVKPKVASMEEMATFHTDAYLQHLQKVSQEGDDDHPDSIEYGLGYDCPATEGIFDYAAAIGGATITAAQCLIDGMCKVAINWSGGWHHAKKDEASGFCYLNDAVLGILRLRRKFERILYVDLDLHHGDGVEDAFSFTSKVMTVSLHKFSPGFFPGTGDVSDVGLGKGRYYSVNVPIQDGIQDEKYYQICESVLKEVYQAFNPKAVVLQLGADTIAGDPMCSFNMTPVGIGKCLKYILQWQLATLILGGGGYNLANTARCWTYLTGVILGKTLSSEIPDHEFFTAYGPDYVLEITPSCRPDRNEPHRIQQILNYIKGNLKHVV
Property measured: IC50 (µM)
The reply should be a number in µM, with the unit left off.

Field request: IC50 | item: COc1nc2ccccc2cc1-c1cnc([C@@H](N)CCCCCC(=O)c2cnoc2C)[nH]1
5

* * *

target: UniProt:Q13547
Sequence (Q13547 whole entry): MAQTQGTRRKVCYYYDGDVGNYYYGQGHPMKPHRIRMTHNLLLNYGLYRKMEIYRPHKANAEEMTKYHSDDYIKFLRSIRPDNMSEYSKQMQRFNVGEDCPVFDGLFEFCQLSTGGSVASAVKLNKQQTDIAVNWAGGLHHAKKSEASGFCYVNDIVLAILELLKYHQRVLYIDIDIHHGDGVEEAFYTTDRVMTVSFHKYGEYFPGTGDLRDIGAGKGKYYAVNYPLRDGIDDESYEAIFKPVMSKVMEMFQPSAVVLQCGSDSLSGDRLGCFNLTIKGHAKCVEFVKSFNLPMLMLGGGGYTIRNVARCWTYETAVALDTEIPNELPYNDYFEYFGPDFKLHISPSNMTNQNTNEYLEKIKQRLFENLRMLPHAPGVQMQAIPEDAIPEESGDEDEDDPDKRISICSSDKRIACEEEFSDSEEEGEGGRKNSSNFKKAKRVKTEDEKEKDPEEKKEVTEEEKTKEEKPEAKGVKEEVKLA
Property measured: IC50 (nM)

Example cases with answers are listed next.
{"Structure smiles": "CN1CC(C(=O)N[C@@H](CCCCCC(=O)c2ncco2)c2ncc(-c3ccc(F)cc3)[nH]2)C1", "Uom": "nM", "Numeric result": 11}
{"Structure smiles": "CN1CCC(C(=O)N[C@@H](CCCCCC(=O)c2ccccn2)c2ncc(-c3ccccc3)[nH]2)CC1", "Uom": "nM", "Numeric result": 150}

I. COc1nc2ccccc2cc1-c1cnc([C@@H](N)CCCCCC(=O)c2cnoc2C)[nH]1
II. N[C@@H](CCCCCC(=O)c1ccon1)c1cnn(-c2ccc(F)cc2)c1
Between the entries labeled I and II , whose measured IC50 is lower? // output: label of the selected item
II
(II: 16 nM, I: 207 nM)
